- TESTED_ON: Mitogen-activated protein kinase kinase kinase kinase 5 (Homo sapiens) (UniProt Q9Y4K4)
- Sequence (Q9Y4K4 whole entry, looked up): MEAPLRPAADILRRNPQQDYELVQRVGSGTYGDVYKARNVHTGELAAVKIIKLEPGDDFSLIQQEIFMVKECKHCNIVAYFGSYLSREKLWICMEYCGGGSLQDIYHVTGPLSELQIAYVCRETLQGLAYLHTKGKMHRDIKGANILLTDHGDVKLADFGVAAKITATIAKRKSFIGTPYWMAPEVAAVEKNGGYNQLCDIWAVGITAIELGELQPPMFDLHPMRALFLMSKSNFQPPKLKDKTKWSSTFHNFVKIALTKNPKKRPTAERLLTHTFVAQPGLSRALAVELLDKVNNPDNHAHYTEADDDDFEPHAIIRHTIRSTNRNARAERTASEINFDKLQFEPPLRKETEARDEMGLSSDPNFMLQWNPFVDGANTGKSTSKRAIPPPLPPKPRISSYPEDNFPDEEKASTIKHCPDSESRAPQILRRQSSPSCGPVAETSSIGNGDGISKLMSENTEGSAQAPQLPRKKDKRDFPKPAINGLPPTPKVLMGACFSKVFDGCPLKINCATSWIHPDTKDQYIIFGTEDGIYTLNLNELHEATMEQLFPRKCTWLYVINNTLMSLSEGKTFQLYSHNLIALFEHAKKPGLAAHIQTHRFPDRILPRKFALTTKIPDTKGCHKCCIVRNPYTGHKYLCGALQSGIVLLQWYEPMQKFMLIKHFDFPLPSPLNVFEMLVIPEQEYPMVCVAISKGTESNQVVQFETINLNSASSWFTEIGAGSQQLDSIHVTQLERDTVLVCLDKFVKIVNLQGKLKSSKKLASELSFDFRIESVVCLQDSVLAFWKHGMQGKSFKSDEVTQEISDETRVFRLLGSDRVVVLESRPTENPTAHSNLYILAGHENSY
- MEASUREMENT_NOTES: Binding affinity to wild type partial length human MAP4K5 (M1 to P297) expressed in Bacterial expression system assessed as residual activity at 100 nM measured by Kinomescan assay relative to control
MEASURE: Activity (%)

Worked cases, Activity given:
{"INPUT_SMILES": "CCCS(=O)(=O)Nc1cccc(C(=O)c2c[nH]c3ncc(-c4ccc(Cl)cc4)cc23)c1C", "MEASUREMENT_UNITS": "%", "REPORTED": 40}
{"INPUT_SMILES": "CCCS(=O)(=O)Nc1ccc(F)c(C(=O)c2c[nH]c3ncc(-c4cnccn4)cc23)c1F", "MEASUREMENT_UNITS": "%", "REPORTED": 75}

[P] O=C(c1c(F)ccc(NS(=O)(=O)CCC(F)(F)F)c1F)c1c[nH]c2ncc(-c3ccc(Cl)cc3)cc12
[Q] COc1ncc(-c2cnc3[nH]cc(C(=O)c4cccc(NS(=O)(=O)Cc5ccccc5)c4F)c3c2)cn1
Task: Select the item whose Activity value is smaller, choosing between P and Q . # reply format: chosen label
Result: P

----------
- TESTED_ON: Dual specificity mitogen-activated protein kinase kinase 7 (Homo sapiens) (UniProt O14733)
- Sequence (O14733 whole entry, the tested form may be a part): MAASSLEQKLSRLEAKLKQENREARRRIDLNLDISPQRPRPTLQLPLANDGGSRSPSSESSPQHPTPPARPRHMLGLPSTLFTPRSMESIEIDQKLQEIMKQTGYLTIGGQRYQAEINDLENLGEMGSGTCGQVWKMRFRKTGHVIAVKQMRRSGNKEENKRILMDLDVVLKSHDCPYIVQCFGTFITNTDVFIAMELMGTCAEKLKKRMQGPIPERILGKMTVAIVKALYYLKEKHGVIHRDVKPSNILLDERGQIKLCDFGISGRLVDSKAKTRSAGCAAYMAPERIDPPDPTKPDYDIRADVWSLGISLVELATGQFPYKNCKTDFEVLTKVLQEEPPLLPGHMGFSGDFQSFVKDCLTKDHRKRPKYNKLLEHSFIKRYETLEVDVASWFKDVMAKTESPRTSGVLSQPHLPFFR
- MEASUREMENT_NOTES: Binding affinity to wild type full length human MKK7 (M1 to R419 residues) expressed in mammalian expression system assessed as residual activity at 100 nM measured by Kinomescan assay
MEASURE: Activity (%)

{"INPUT_SMILES": "Cc1cc(F)ccc1-c1cnc2[nH]cc(C(=O)c3cccc(NS(=O)(=O)Cc4ccccc4)c3F)c2c1", "TESTED_ON": "Dual specificity mitogen-activated protein kinase kinase 7 (Homo sapiens) (UniProt O14733)", "Activity [%]": 98}
{"INPUT_SMILES": "CCCS(=O)(=O)Nc1ccc(F)c(C(=O)c2c[nH]c3ncc(-c4ccc(OC)cc4C)cc23)c1F", "TESTED_ON": "Dual specificity mitogen-activated protein kinase kinase 7 (Homo sapiens) (UniProt O14733)", "Activity [%]": 97}
{"INPUT_SMILES": "CCCS(=O)(=O)Nc1ccc(F)c(C(=O)c2c[nH]c3ncc(-c4cc5c(cc4Cl)OCCO5)cc23)c1F", "TESTED_ON": "Dual specificity mitogen-activated protein kinase kinase 7 (Homo sapiens) (UniProt O14733)", "Activity [%]": 97}
{"INPUT_SMILES": "CCCS(=O)(=O)Nc1ccc(F)c(C(=O)c2c[nH]c3ncc(-c4ccco4)cc23)c1F", "TESTED_ON": "Dual specificity mitogen-activated protein kinase kinase 7 (Homo sapiens) (UniProt O14733)", "Activity [%]": 95}
{"INPUT_SMILES": "CCCCCCS(=O)(=O)Nc1ccc(F)c(C(=O)c2c[nH]c3ncc(-c4ccc(Cl)cc4)cc23)c1F", "TESTED_ON": "Dual specificity mitogen-activated protein kinase kinase 7 (Homo sapiens) (UniProt O14733)", "Activity [%]": 81}
{"INPUT_SMILES": "CCCCCS(=O)(=O)Nc1ccc(F)c(C(=O)c2c[nH]c3ncc(-c4ccc(Cl)cc4)cc23)c1F", "TESTED_ON": "Dual specificity mitogen-activated protein kinase kinase 7 (Homo sapiens) (UniProt O14733)", "Activity [%]": 89}
{"INPUT_SMILES": "CCCS(=O)(=O)Nc1ccc(F)c(C(=O)c2c[nH]c3ncc(-c4ccc(F)cc4)cc23)c1F", "TESTED_ON": "Dual specificity mitogen-activated protein kinase kinase 7 (Homo sapiens) (UniProt O14733)", "Activity [%]": 100}
{"INPUT_SMILES": "CCCS(=O)(=O)Nc1ccc(F)c(C(=O)c2c[nH]c3ncc(-c4cccc(F)c4)cc23)c1F", "TESTED_ON": "Dual specificity mitogen-activated protein kinase kinase 7 (Homo sapiens) (UniProt O14733)", "Activity [%]": 90}
